target_or_system: human collagen type I (acid soluble, extracted from placenta, Sigma C7774) (human) (UniProt P02452)
Sequence (P02452 162-1218 limits assumed, chain 1 of 2): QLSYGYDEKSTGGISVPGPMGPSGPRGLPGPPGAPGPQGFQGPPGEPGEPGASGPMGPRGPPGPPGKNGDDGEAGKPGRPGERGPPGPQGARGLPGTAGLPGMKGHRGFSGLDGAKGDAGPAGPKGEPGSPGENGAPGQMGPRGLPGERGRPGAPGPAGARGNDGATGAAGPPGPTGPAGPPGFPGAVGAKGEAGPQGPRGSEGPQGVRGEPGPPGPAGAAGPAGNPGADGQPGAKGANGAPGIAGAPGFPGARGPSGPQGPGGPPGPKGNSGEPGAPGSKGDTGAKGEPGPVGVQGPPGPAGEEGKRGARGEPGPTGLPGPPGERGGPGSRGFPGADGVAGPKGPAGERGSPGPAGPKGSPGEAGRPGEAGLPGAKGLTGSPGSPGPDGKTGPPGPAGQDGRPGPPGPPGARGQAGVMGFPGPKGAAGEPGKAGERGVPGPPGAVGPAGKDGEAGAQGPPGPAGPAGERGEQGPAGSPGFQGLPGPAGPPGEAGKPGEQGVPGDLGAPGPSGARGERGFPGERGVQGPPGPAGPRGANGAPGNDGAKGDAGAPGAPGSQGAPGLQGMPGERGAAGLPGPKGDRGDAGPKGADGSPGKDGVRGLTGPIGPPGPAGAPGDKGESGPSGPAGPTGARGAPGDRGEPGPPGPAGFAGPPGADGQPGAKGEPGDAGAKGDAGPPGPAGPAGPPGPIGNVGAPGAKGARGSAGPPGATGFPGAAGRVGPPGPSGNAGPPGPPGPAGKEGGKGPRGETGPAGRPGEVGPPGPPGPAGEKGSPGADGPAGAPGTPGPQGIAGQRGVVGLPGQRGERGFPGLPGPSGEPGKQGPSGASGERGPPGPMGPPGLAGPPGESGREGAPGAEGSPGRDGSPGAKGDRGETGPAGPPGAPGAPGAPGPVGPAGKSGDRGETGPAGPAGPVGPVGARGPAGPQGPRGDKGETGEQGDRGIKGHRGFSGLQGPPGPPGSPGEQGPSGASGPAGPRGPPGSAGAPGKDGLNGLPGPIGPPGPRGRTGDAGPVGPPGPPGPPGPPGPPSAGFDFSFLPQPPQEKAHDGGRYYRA
Sequence (P08123 80-1119 limits assumed, chain 2 of 2, further chain): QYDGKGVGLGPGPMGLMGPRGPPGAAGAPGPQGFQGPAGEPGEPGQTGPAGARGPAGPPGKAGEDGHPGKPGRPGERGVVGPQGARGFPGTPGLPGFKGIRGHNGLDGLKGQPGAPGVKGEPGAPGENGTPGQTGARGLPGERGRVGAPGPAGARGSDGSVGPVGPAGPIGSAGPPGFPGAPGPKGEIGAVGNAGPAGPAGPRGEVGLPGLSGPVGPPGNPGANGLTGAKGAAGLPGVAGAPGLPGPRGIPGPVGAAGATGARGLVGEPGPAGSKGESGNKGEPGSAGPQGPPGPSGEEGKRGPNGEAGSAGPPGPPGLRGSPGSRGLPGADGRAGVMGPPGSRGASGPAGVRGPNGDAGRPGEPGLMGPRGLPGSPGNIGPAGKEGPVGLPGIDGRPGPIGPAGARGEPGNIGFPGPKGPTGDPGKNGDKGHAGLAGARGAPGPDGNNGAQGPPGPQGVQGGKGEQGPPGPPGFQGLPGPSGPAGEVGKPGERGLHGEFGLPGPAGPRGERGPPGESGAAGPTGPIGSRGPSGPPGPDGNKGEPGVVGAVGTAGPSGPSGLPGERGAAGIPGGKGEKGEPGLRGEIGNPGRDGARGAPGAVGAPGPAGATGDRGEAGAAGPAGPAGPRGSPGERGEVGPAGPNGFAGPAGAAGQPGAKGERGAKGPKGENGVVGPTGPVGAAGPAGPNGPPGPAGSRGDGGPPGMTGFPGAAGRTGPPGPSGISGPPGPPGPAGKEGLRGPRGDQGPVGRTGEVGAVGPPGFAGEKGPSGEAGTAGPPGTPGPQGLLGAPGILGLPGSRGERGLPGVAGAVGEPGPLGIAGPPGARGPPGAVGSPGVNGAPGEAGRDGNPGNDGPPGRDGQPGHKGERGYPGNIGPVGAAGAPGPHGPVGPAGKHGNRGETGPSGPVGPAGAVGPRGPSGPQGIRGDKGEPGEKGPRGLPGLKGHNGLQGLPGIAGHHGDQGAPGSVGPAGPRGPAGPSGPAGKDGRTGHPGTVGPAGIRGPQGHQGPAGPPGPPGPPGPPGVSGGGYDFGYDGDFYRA
experiment_notes: dried collagen assay, 5 uM each
Bridge positions count the residues as written; N and C are the ends. Ends that are not written are not given here.
property_measured: Human binding (%)

Examples with answers:
GQWHCTTIFPHHYCLYG [Compound ID 917] :: 12
GQWACSGDEYTWHCNYE [Compound ID 840] :: 15
DWTCSRDEYTWHCNYE [Compound ID 821] :: 56
GQWKCTTRFPHHYCLYG [Compound ID 956] :: 39
GQWSCTTRFPHHYCLYG [Compound ID 870] :: 30

[I] GKWHCYTKFPHHYCKYY [Compound ID 1013]
[II] GQWHCTDRFPHHYCLYG [Compound ID 936]
Form field 'greater Human binding' accepts I or II ; which applies? Your answer should be the label attached to the chosen record.
I
(I: 81%, II: 9%)

[P] GVKWHCTTYFPHHYCLYG [Compound ID 982]
[Q] KKWHCYTYFPHHYCVYG (disulfide 5-14 (inferred); also: coupled to ITC-Gd3 (tris-Gd-DOTAGA isothiocyanate), site not given here) [Compound ID NO. 1014]
Form field 'greater Human binding' accepts P or Q ; which applies? Your answer should be the label attached to the chosen record.
Q
(Q: 72%, P: 40%)
